Reference source: ChEMBL document CHEMBL1146754

molecular target: Estrogen receptor (Homo sapiens, UniProt P03372); experiment: Potency in cellular transactivation assay utilizing HEK293 cells stably co-transfected with human estrogen receptor alpha and the alkaline phosphatase reporter gene.; format: functional, cell-based
Sequence (P03372 whole entry): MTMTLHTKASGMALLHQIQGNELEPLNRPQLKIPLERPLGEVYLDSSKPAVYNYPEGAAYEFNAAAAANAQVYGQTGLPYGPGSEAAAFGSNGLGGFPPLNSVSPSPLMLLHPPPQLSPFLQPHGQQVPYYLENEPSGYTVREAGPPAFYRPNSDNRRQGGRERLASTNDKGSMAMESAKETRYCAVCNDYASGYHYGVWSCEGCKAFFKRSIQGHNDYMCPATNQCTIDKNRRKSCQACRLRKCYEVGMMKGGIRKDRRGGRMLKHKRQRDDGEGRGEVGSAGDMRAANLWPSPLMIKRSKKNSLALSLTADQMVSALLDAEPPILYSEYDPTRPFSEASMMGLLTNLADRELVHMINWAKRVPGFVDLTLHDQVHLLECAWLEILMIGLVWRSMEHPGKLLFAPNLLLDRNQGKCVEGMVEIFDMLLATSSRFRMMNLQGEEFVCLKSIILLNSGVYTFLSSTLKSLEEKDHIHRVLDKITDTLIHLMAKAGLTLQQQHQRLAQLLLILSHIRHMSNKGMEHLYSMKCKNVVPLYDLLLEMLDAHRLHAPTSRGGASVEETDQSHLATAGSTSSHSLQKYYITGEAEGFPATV
Reported Property: IC50 (nM)

Query: Return IC50 for the following compound: `Oc1ccc([C@@H]2Sc3cc(O)cc(Cl)c3O[C@@H]2c2ccc(OCCN3CCCCC3)cc2)cc1`
Reply: 25.4

P. COc1ccc(C2Sc3cc(O)ccc3OC2c2ccc(OCCN3CCCCC3)cc2)cc1 (stereo not drawn)
Q. Cc1c(O)ccc2c1O[C@H](c1ccc(OCCN3CCCCC3)cc1)[C@H](c1ccc(O)cc1)S2
Query: Min IC50? P | Q Please reply using the label of the selected record.
Reply: Q
(Q: 9.3 nM, P: 274 nM)
